Each recorded value in this set is attributed to patent US20120172295A1.

- assayed-system: glucagon receptor (UniProt P47871 26-477, limits assumed)
- Sequence (P47871 26-477 limits assumed): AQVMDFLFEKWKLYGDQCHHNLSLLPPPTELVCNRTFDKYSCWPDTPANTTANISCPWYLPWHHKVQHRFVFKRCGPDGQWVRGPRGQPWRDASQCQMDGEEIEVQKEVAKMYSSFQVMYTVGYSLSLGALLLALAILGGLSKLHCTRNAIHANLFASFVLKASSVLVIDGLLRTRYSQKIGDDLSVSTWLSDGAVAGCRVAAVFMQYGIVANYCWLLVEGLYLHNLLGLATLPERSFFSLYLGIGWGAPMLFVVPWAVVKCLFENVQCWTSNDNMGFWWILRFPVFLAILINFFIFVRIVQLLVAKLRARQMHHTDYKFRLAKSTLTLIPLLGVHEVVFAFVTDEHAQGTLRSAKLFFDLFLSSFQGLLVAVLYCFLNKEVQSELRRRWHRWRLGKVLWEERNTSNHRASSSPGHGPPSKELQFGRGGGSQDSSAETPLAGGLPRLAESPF
- experimental-details: cell-based or functional assay
Starred links: 1 amine or outer side, 2 acyl side, 3 side chain; linkers in the order of their positions; H or OH if unused. Non-standard residues stand in square brackets, D forms with d. No end group written: not given here. Dab(Ac) = acetyldiaminobutanoic acid, CC(=O)NCC[C@H](N[*:1])C(=O)[*:2]; Dap(CONH2) = NC(=O)NC[C@H](N)C(=O)O; Nle = CCCC[C@H](N)C(=O)O; Dab = NCC[C@H](N)C(=O)O; Aib = CC(C)(N)C(=O)O
assay-endpoint: % activity (%)

>>> print(df.to_string())
                                     binder  readout_number
0  HSQGTFTSDYSKYLDTRRAAEFVAWL[Nle]DE [Peptide J backbone, Q at position 3 (SEQ ID NO: 593)]              25
1  HSQGTFTSDYSKYLD[Aib]RRAADFVAWLMDE [Peptide K backbone, Q at position 3 (SEQ ID NO: 600)]              15
2  HS[Dab](Ac)GTFTSDYSKYLD[Aib]RRAADFVAWLMDE [Peptide K backbone, Dab(Ac) at position 3 (SEQ ID NO: 601)]              86
3  HS[Dab(Ac)]GTFTSDYSKYLDTRRAAEFVAWL[Nle]DE [Peptide J backbone, Dab(Ac) at position 3 (SEQ ID NO: 595)]              19
4  HS[Dap(CONH2)]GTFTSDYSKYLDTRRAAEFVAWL[Nle]DE [Peptide J backbone, Dap(urea) at position 3 (SEQ ID NO: 596)]              13
